# ASSAY_EXPLANATION: Multiple dose PK/TK, dog
# Type: in vivo
# ASSAY_SETUP: male, Beagle, dog, in vivo, po, 26 mg/kg, dog 6M, 0295AD, 26.0 mg/kg (120 μmol/kg) split into 17.3 and 8.7 mg/kg 6 h apart, capsules fed, day 35

# CHEMICAL_SMILES, Tmax
data = [
    ("c1cnc2c(c1)C[C@@]1(CN3CCC1CC3)O2", "0.5 to 2 h"),
]

* * *

# ASSAY_EXPLANATION: Multiple dose PK/TK, rat
# Format: in vivo
# ASSAY_SETUP: female, rat, in vivo, po, 15.1 mg/kg, rat 4F, 0612AR, 15.1 mg/kg (70 μmol/kg), day 30
RECORDED_ENDPOINT: Tmax at 30 day (h)

# CHEMICAL_SMILES, READOUT_UNIT, RESULT
measured = [
    ("c1cnc2c(c1)C[C@@]1(CN3CCC1CC3)O2", "h", 1),
]

* * *

# ASSAY_EXPLANATION: Multiple dose PK/TK, rabbit
# Assay type: in vivo
# ASSAY_SETUP: female, New Zealand White, in vivo, sc; rabbit 3F, DMB15, subcutaneous 0.269 mg/kg (0.7 μmol/kg), day 18

# CHEMICAL_SMILES, AUC [µM·h]
measured = [
    ("c1cnc2c(c1)C[C@@]1(CN3CCC1CC3)O2", 0.872),
]

* * *

# ASSAY_EXPLANATION: Multiple dose PK/TK, rabbit
# Type: in vivo
# ASSAY_SETUP: female, New Zealand White, in vivo, sc; rabbit 3F, DMB15, subcutaneous 0.384 mg/kg (1 μmol/kg), day 18
RECORDED_ENDPOINT: Tmax

# MOLECULE, RECORDED_ENDPOINT, RESULT
records = [
    ("c1cnc2c(c1)C[C@@]1(CN3CCC1CC3)O2 [AZD0328]", "Tmax", "0.25 to 2.02 h"),
]

* * *

# ASSAY_EXPLANATION: Multiple dose PK/TK, dog
# Type: in vivo
# ASSAY_SETUP: female, Beagle, dog, in vivo, po, 17.3 mg/kg, dog 3F, 0295AD, 17.3 mg/kg (80 μmol/kg) split in two 6 h apart, capsules fed, day 35

# CHEMICAL_SMILES, Tmax at 35 day
records = [
    ("c1cnc2c(c1)C[C@@]1(CN3CCC1CC3)O2", "1 to 9 h"),
]

* * *

# ASSAY_EXPLANATION: Multiple dose PK/TK, dog
# Format: in vivo
# ASSAY_SETUP: male, Beagle, dog, in vivo, po, 8.65 mg/kg, dog 3M, 0295AD, 8.65 mg/kg (40 μmol/kg) split in two 6 h apart, capsules fed, day 7

# CHEMICAL_SMILES, Tmax at 7 day
data = [
    ("c1cnc2c(c1)C[C@@]1(CN3CCC1CC3)O2", "0.5 to 7 h"),
]

* * *

# ASSAY_EXPLANATION: Cardiovascular effects in telemetered rats
# Assay type: in vivo, rat
# ASSAY_SETUP: plasma; rat, oral, 1.1 mg/kg; read-out: NOAEL (effect<10%) on cardiovascular function, total Cmax
RECORDED_ENDPOINT: Cmax (nM)

# MOLECULE, RESULT
measured = [
    ("c1cnc2c(c1)C[C@@]1(CN3CCC1CC3)O2 [AZD0328]", 500),
]
